- targetEntity: Cyclin-C/Cyclin-dependent kinase 19 (Homo sapiens, UniProt Q9BWU1)
- Sequence (Q9BWU1 whole entry, one chain of several): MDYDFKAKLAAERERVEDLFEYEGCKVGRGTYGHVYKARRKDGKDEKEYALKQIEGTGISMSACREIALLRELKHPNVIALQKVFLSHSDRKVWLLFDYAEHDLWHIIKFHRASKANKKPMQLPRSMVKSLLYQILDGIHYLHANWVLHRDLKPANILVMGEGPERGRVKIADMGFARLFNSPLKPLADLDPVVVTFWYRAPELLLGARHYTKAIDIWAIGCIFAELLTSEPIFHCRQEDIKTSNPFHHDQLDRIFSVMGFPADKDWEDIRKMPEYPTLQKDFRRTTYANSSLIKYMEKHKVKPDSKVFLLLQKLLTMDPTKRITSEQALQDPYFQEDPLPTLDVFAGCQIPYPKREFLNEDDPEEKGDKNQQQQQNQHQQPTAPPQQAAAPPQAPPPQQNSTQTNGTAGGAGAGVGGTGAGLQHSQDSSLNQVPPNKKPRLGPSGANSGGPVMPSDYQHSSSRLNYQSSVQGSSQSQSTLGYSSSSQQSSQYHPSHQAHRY
- measurementDescription: Inhibition of CDK19/Cyclin C (unknown origin) by ADP-Glo kinase assay
valueKind: IC50

Task: Returns the measured IC50 for the input molecule. Input: Cn1cc(-c2ccc(N(C(=O)NCc3ccccc3)[C@H]3CC[C@H](Nc4ccc(C#N)cn4)CC3)cc2)ccc1=O
Result: > 10 µM

---

- targetEntity: Cyclin-dependent kinase 5/CDK5 activator 1 (Homo sapiens, UniProt Q00535)
- Sequence (Q00535 whole entry): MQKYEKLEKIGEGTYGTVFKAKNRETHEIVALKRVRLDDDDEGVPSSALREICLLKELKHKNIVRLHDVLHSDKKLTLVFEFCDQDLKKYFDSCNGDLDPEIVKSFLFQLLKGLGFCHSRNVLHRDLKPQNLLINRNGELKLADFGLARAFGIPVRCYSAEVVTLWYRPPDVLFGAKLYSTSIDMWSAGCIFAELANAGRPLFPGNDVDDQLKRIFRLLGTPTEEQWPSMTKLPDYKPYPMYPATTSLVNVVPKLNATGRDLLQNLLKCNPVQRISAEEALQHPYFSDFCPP
- Sequence (Q15078 whole entry, further chain): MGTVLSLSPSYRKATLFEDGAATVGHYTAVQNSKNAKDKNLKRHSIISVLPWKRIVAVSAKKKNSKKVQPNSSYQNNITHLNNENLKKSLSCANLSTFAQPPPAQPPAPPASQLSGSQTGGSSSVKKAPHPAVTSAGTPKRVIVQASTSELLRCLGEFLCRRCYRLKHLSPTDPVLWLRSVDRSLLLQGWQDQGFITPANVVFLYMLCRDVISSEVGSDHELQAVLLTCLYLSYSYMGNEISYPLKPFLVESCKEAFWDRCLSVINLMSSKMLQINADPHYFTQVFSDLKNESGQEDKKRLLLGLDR
- measurementDescription: Inhibition of CDK5/p25NCK (unknown origin) by ADP-Glo kinase assay
- Assay type: protein-complex assay
valueKind: IC50 (µM)
Note: unit µM is implicit; provide only the numeric part.

Task: Recall the recorded IC50 for Cn1cc(-c2ccc(N(C(=O)NCc3ccccc3)[C@H]3CC[C@H](Nc4ccc(C#N)cn4)CC3)cc2)ccc1=O with Cyclin-dependent kinase 5/CDK5 activator 1 (Homo sapiens, UniProt Q00535) and state it.
Result: 4.86

---

- targetEntity: CDK8/Cyclin C (Homo sapiens)
- Sequence (P49336 whole entry): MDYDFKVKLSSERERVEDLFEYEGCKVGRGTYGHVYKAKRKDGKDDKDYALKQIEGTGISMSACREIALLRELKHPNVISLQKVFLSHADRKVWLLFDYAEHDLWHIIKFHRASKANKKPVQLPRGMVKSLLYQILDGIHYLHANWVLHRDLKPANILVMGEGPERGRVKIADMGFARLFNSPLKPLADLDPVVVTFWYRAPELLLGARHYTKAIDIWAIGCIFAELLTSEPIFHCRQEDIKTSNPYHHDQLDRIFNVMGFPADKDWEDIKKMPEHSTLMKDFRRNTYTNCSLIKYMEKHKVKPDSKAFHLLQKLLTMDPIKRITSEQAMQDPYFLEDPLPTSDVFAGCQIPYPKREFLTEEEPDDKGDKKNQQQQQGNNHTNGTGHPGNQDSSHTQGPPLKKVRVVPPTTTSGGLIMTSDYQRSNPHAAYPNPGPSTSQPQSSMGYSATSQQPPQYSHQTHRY
- Sequence (P24863 whole entry, further chain): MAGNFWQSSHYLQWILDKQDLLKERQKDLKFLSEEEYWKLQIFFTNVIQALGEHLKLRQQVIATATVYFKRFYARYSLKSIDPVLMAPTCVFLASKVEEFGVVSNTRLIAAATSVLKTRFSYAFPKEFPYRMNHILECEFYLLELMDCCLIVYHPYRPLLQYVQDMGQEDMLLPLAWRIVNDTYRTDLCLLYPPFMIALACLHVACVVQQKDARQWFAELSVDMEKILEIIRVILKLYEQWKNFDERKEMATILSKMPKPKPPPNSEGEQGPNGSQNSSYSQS
- measurementDescription: Inhibition of CDK8/Cyclin C (unknown origin) by ADP-Glo kinase assay
pIC50: −log10 of the molar value.
valueKind: pIC50

Task: Recall the recorded pIC50 for Cn1cc(-c2ccc(N(C(=O)NCc3ccccc3)[C@H]3CC[C@H](Nc4ccc(C#N)cn4)CC3)cc2)ccc1=O with CDK8/Cyclin C (Homo sapiens) and state it.
Result: < 5.00

---

- targetEntity: Cyclin-dependent kinase 5/CDK5 activator 1 (Homo sapiens, UniProt Q00535)
- measurementDescription: Inhibition of CDK5/p35NCK (unknown origin) by ADP-Glo kinase assay
- Type: protein-complex assay
valueKind: pIC50
When answering, recall that pIC50 equals minus log10 of the concentration in mol/L, and write that number alone.

Task: Returns the measured pIC50 for the input compound. Input: Cn1cc(-c2ccc(N(C(=O)NCc3ccccc3)[C@H]3CC[C@H](Nc4ccc(C#N)cn4)CC3)cc2)ccc1=O
Result: 5.30
